- system tested: human delta opioid receptor (human, UniProt P41143 1-372)
- Sequence (P41143 whole entry, stated change not applied): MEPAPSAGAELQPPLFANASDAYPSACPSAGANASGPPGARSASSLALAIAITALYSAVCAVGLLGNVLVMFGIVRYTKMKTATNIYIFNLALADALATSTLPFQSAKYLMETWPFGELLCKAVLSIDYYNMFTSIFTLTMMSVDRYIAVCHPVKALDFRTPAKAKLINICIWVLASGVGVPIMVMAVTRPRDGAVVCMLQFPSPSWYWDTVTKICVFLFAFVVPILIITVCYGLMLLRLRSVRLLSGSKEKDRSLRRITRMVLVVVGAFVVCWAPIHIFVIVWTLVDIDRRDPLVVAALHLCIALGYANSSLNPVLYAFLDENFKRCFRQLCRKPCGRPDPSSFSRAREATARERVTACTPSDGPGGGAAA
- method: cell-based or functional assay
Positions of bridges follow the written chain, without caps; N, C: chain ends. Non-standard residues stand in square brackets, D forms with d. No end group written: not given here. *: point of attachment. NMeF = CN[C@@H](Cc1ccccc1)C(=O)O; NHCH2CH2OH = OCCN*
outcome measure: Agonist EC50, delta (35S-GTPγS)

Answered examples (3):
- binder: "Y[dA]G[NMeF][NHCH2CH2OH] (not fully specified (C-terminus); printed as Tyr-D-Ala2-N-MePhe4-Gly-ol; also: tritiated where used as radioligand, CAS #78123-71-4; also called DAMGO; 3H-DAMGO) [[D-Ala2, N-Me-Phe4, Gly-ol]-enkephalin]"
  Agonist EC50, delta (35S-GTPγS): "3.64 µM"
- binder: "Y[dK]WFD-NH2 (lactam 2-5; N-terminus assumed; SMILES NC(=O)[C@@H]1CC(=O)NCCCC[C@@H](NC(=O)[C@@H](N)Cc2ccc(O)cc2)C(=O)N[C@@H](Cc2c[nH]c3ccccc23)C(=O)N[C@@H](Cc2ccccc2)C(=O)N1, also called Compound 5; Comp) [Tyr-c[D-Lys-Trp-Phe-Asp]-NH2]"
  Agonist EC50, delta (35S-GTPγS): "> 100 µM"
- binder: "Y[dE]FFK-NH2 (lactam 2-5; N-terminus assumed; SMILES NC(=O)[C@@H]1CCCCNC(=O)CC[C@@H](NC(=O)[C@@H](N)Cc2ccc(O)cc2)C(=O)N[C@@H](Cc2ccccc2)C(=O)N[C@@H](Cc2ccccc2)C(=O)N1, Cyclic pentapeptide analog of endomorphin-2; also called Compound 2; Comp) [Tyr-c[D-Glu-Phe-Phe-Lys]-NH2]"
  Agonist EC50, delta (35S-GTPγS): "> 100 µM"

// next item, Agonist EC50, delta (35S-GTPγS) requested
// query Field request: Agonist EC50, delta (35S-GTPγS) | item: Y[dK]WFE-NH2 (lactam 2-5; N-terminus assumed; SMILES NC(=O)[C@@H]1CCC(=O)NCCCC[C@@H](NC(=O)[C@@H](N)Cc2ccc(O)cc2)C(=O)N[C@@H](Cc2c[nH]c3ccccc23)C(=O)N[C@@H](Cc2ccccc2)C(=O)N1, Cyclic pentapeptide analog of endomorphin-1; also called Compound 1; Comp) [Tyr-c[D-Lys-Trp-Phe-Glu]-NH2]
// result > 100 µM
